conditions_used: buffer; pH 7.4; 200.0 µM
For each of the compounds below, state its log10 of solubility kinetic.
Please interpret these as log10 of solubility kinetic where solubility kinetic is in mg/mL.

Qu. Entry "CCOC(=O)/C(C#N)=C/Nc1ccccc1OC(F)(F)F" has what log10 of solubility kinetic?
Ans. -2.92

Qu. So what does the record say about log10 of solubility kinetic for "CN(C)c1ccc(SC#N)cc1" ?
Ans. -2.38

Qu. What value of log10 of solubility kinetic has been recorded for this entry: "O=C1Nc2ccc(F)cc2C12OCCO2"
Ans. -1.50

Qu. What log10 of solubility kinetic value was documented for this compound, "N#Cc1ccc(C(=O)Nc2cccc(S(=O)(=O)NC3=NCCC3)c2)cc1" ?
Ans. -1.63

Qu. I would be grateful if you could share the reported log10 of solubility kinetic for "Cc1cc(Nc2ccc(Cl)cc2)nc(-c2ccccc2O)n1" .
Ans. -3.70

Qu. Query: log10 of solubility kinetic; subject: "FC(F)(F)c1ccccc1CNCc1ccncc1"
Ans. -1.53

Qu. Form field: reported log10 of solubility kinetic of "Cc1ccc(C(=O)Nc2cccc(-c3nc4ncccc4o3)c2)cc1"
Ans. -2.89

Qu. Entry under review: CCS(=O)c1ccccc1C(=O)OCC(=O)Nc1ccc2ccccc2c1 (stereo not given) . Reported log10 of solubility kinetic?
Ans. -1.34

Qu. Which measured log10 of solubility kinetic value corresponds to "Clc1cc(Cl)cc(NC2=NCCS2)c1" ?
Ans. -2.06

Qu. Looking for the measured log10 of solubility kinetic of "O=C(Nc1nc2c(Cl)cccc2s1)C1CC1" , can you help?
Ans. -2.89

Qu. // returns reported log10 of solubility kinetic for input "CCCCNC(=O)/C(=C/c1ccco1)NC(=O)c1ccco1"
Ans. -1.42

Qu. Query (compound): Cc1cc(NC(=O)C(C)Sc2nc(-c3ccccc3)cc(=O)[nH]2)no1 (stereo not given) ; field requested: log10 of solubility kinetic
Ans. -1.76

Qu. Need log10 of solubility kinetic, item "Cc1ccc(N2CCN(C(=O)c3cccs3)CC2)c(C)c1"
Ans. -2.64

====

conditions_used: buffer; pH 7.4; 200.0 µM
measurement_name: solubility kinetic

Qu. Need solubility kinetic, item Cc1ccc(NC2=C(Cl)C(=O)OC2OC(C)C)cc1 (configuration not stated)
Ans. 34.8 µg/mL

Qu. Reported solubility kinetic, compound "CCCCn1c(N)c(N(CC)C(=O)c2ccco2)c(=O)[nH]c1=O" : ____
Ans. > 48.1 µg/mL

Qu. Name the reported solubility kinetic value associated with the compound CC(Sc1cccc[n+]1[O-])C(=O)Nc1cc(Cl)c(Cl)cc1Cl (configuration not stated)
Ans. 53.5 µg/mL

Qu. Quick check: solubility kinetic of "Cc1ccc(C(=O)NCC(=O)N2CCc3ccccc3C2)cc1C" ?
Ans. > 48.4 µg/mL

Qu. Entry under review: Cc1ccc(NC2CCCN(C(=O)c3cccnc3)C2)cc1C (configuration not stated) . Reported solubility kinetic?
Ans. > 46.4 µg/mL

Qu. Which solubility kinetic value is on record for "O=C(c1ccc(-c2cccc(Cl)c2Cl)o1)N1CCOCC1" ?
Ans. 47.1 µg/mL

Qu. Bench note: what solubility kinetic did "CC(C)(Oc1ccc(Cl)cc1)C(=O)N1CCC(C(N)=O)CC1" show?
Ans. 48.7 µg/mL

Qu. # query: solubility kinetic of entry "O=C(NNC(=O)C1CCN(S(=O)(=O)c2ccccc2)CC1)c1ccccc1O"
Ans. > 60.5 µg/mL

Qu. Entry under review: Cc1cc(C(=O)OCC(=O)NC(C)c2ccccc2)c(C)o1 (configuration not stated) . Reported solubility kinetic?
Ans. 17.7 µg/mL

Qu. Return reported solubility kinetic; argument: CC1COc2ccccc2N1C(=O)c1ccc(Cl)cc1 (configuration not stated)
Ans. 31.3 µg/mL

Qu. Reported solubility kinetic for "CCOc1ncccc1C(=O)Nc1ccccc1F" : what is it?
Ans. 2.5 µg/mL

Qu. Fill in: solubility kinetic of Cc1ccc(C(=O)Nc2ccc(C(=O)NCC3CCCO3)cc2)cc1 (configuration not stated) is ___
Ans. 3.5 µg/mL
